target_or_test_system: DPP1 in HL-60 cells (Homo sapiens)
Sequence (P53634 25-463): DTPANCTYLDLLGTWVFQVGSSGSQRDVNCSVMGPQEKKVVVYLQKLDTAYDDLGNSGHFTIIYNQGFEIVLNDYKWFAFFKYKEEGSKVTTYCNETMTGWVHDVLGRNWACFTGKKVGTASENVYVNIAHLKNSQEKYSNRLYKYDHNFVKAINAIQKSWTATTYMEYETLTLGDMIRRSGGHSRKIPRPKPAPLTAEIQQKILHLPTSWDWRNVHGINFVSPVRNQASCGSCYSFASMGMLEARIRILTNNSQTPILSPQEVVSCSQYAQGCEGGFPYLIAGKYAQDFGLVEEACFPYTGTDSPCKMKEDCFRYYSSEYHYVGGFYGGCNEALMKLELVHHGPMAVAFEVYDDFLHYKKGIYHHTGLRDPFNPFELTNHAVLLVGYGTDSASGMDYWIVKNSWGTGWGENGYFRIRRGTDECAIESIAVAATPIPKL
assay_method_text: DPP1 Cell Single-Point Percent Inhibition Testing
Assay type: cell-based
Design: host or cells: HL-60 cells
condition_label: final compound concentration 5 nM, n = 1
Procedure: Example 100. DPP1 Cell Single-Point Percent Inhibition Testing HL-60 cells (ATCC; Manassas, VA) were maintained in RPMI-1640 supplemented with 20% heat-inactivated FBS and 1× Antibiotic Antimycotic (Cytiva; Marlborough, MA). Media was changed every three to four days and cells were not allowed to exceed 1×10^6 cells per mL. Prior to assay, cells were collected by centrifugation at 500 rcf for 3 minutes, resuspended in RPMI (with no additional supplements) and counted. […]
Please provide measured inhibition at 0.005 µM for the entries that follow.

Prompt line: I am curious: what inhibition at 0.005 µM value has been reported for CCN1C(=O)Cc2ccc(-c3ccc(C[C@@H](C#N)NC(=O)[C@@H]4CN[C@@H](C)[C@@H](O)CO4)c(F)c3)cc21 ?
Response line: ≤ 76.5%

Prompt line: Subsequent entry: CO[C@H]1CCO[C@H](C(=O)N[C@H](C#N)Cc2ccc(-c3ccc(S(=O)(=O)N4CCC4)cc3)cc2F)CNC1
Response line: ≤ 76.5%

Prompt line: Do the same for CN1CCCC2(C1)C(=O)N(C)c1ccc(-c3ccc(C[C@@H](C#N)NC(=O)[C@@H]4CNCCCO4)cc3)cc12 (stereo partly drawn) please
Response line: ≤ 76.5%
